Details: 359.15 K; 100 kPa; Liquid; Vibrating tube method
Reported mass density is given for each of the following compounds.
The answer is to be given in kg/m3; state only the numeric part.

# example entries with known answers
1. CCCC[N+](C)(C)CC.O=S(=O)([N-]S(=O)(=O)C(F)(F)F)C(F)(F)F = 1319.1
2. CC[N+](CCO)(CCO)CCO.O=S(=O)([N-]S(=O)(=O)C(F)(F)F)C(F)(F)F = 1477.1
3. CC[N+](C)(CCO)CCO.O=S(=O)([N-]S(=O)(=O)C(F)(F)F)C(F)(F)F = 1461.8
4. CC[N+](C)(C)CCOC.O=S(=O)([N-]S(=O)(=O)C(F)(F)F)C(F)(F)F = 1375.1
5. CC[N+](C)(C)CCCO.O=S(=O)([N-]S(=O)(=O)C(F)(F)F)C(F)(F)F = 1410.8

Entry C[N+](CCO)(CCO)CCO.O=S(=O)([N-]S(=O)(=O)C(F)(F)F)C(F)(F)F has what mass density?
1512.8

Entry CCCC[N+](CCO)(CCO)CCO.O=S(=O)([N-]S(=O)(=O)C(F)(F)F)C(F)(F)F has what mass density?
1404.4

----------
Conditions: 306.15 K; 100 kPa; Liquid; Vibrating tube method
property.label: mass density (kg/m3)
The answer is to be given in kg/m3; state only the numeric part.

1. CC[N+](C)(CCO)CCO.O=S(=O)([N-]S(=O)(=O)C(F)(F)F)C(F)(F)F = 1508
2. CCCC[N+](CCO)(CCO)CCO.O=S(=O)([N-]S(=O)(=O)C(F)(F)F)C(F)(F)F = 1449.7
3. CC[N+](C)(C)CCOC.O=S(=O)([N-]S(=O)(=O)C(F)(F)F)C(F)(F)F = 1423.4
4. CCCC[N+](C)(C)CC.O=S(=O)([N-]S(=O)(=O)C(F)(F)F)C(F)(F)F = 1364.6

Entry CC[N+](CCO)(CCO)CCO.O=S(=O)([N-]S(=O)(=O)C(F)(F)F)C(F)(F)F has what mass density?
1522.7

Entry C[N+](CCO)(CCO)CCO.O=S(=O)([N-]S(=O)(=O)C(F)(F)F)C(F)(F)F has what mass density?
1559.6

Entry CC[N+](C)(C)CCCO.O=S(=O)([N-]S(=O)(=O)C(F)(F)F)C(F)(F)F has what mass density?
1456.4

----------
Reported mass density is given for each of the following compounds.
Conditions: 295.15 K; 100 kPa; Liquid; Vibrating tube method
The answer is to be given in kg/m3; state only the numeric part.

# example entries with known answers
1) CC[N+](C)(CCO)CCO.O=S(=O)([N-]S(=O)(=O)C(F)(F)F)C(F)(F)F = 1518
2) CC[N+](C)(C)CCCO.O=S(=O)([N-]S(=O)(=O)C(F)(F)F)C(F)(F)F = 1466.1
3) C[N+](CCO)(CCO)CCO.O=S(=O)([N-]S(=O)(=O)C(F)(F)F)C(F)(F)F = 1569.5
4) CC[N+](CCO)(CCO)CCO.O=S(=O)([N-]S(=O)(=O)C(F)(F)F)C(F)(F)F = 1532.4
5) CC[N+](C)(C)CCOC.O=S(=O)([N-]S(=O)(=O)C(F)(F)F)C(F)(F)F = 1433.8

Entry CCCC[N+](CCO)(CCO)CCO.O=S(=O)([N-]S(=O)(=O)C(F)(F)F)C(F)(F)F has what mass density?
1459.2

Entry CCCC[N+](C)(C)CC.O=S(=O)([N-]S(=O)(=O)C(F)(F)F)C(F)(F)F has what mass density?
1374.3
